Data provenance: ChEMBL document CHEMBL1268977

tested on: Bacillus subtilis; assay: Antibacterial activity against Bacillus subtilis ATCC 530 after 24 hrs by serial dilution method; format: functional; conditions: ATCC 530, 24 h
readout: log10(MIC) (log10 of the value in µg/mL)
All values: log10 MIC [µg/mL].

// below: answered compounds
INSERT INTO assay_data (compound, assayresult) VALUES
  ('CC(=O)NC1=NN(C(C)=O)C2(S1)C1CCCC2C(c2ccccc2)N(C(C)=O)C1c1ccccc1 (stereo not drawn)', 2.00),
  ('CC(=O)NC1=NN(C(C)=O)C2(S1)C1CCCC2C(c2ccccc2Cl)NC1c1ccccc1Cl (stereo not drawn)', 1.10),
  ('COc1ccc(C2C3CCCC(C(c4ccc(OC)cc4)N2C(C)=O)C32SC(NC(C)=O)=NN2C(C)=O)cc1 (stereo not drawn)', 1.70),
  ('CCC(=O)NC1=NN(C(=O)CC)C2(S1)C1CCCC2C(c2cccc(F)c2)NC1c1cccc(F)c1 (stereo not drawn)', 0.80),
  ('CCC(=O)NC1=NN(C(=O)CC)C2(S1)C1CCCC2C(c2ccccc2)N(C(=O)CC)C1c1ccccc1 (stereo not drawn)', 1.70),
  ('CCC(=O)NC1=NN(C(=O)CC)C2(S1)C1CCCC2C(c2ccccc2Cl)NC1c1ccccc1Cl (stereo not drawn)', 1.10),
  ('CC(=O)N(C1=NN(C(C)=O)C2(S1)C1CCCC2C(c2ccc(Cl)cc2)N(C(C)=O)C1c1ccc(Cl)cc1)c1ccccc1 (stereo not drawn)', 1.40),
  ('CCC(=O)NC1=NN(C(=O)CC)C2(S1)C1CCCC2C(c2ccc(Cl)cc2)NC1c1ccc(Cl)cc1 (stereo not drawn)', 1.10),
  ('CCC(=O)NC1=NN(C(=O)CC)C2(S1)C1CCCC2C(c2ccc(C)cc2)NC1c1ccc(C)cc1 (stereo not drawn)', 2.00),
  ('CCC(=O)NC1=NN(C(=O)CC)C2(S1)C1CCCC2C(c2cccc(OC)c2)N(C(=O)CC)C1c1cccc(OC)c1 (stereo not drawn)', 1.70);

Input line: Tell us which log10(MIC) value is on record for CN[C@@H]1[C@H](O[C@H]2[C@H](O[C@H]3[C@H](O)[C@@H](O)[C@H](N=C(N)N)[C@@H](O)[C@@H]3N=C(N)N)O[C@@H](C)[C@]2(O)C=O)O[C@@H](CO)[C@H](O)[C@H]1O
Output line: 1.10

Input line: Tell us which log10(MIC) value is on record for CC(=O)NC1=NN(C(C)=O)C2(S1)C1CCCC2C(c2ccc(C)cc2)NC1c1ccc(C)cc1 (stereo not drawn)
Output line: 1.10

Input line: Tell us which log10(MIC) value is on record for CC(=O)N(C1=NN(C(C)=O)C2(S1)C1CCCC2C(c2ccccc2Cl)NC1c1ccccc1Cl)c1ccccc1 (stereo not drawn)
Output line: 1.10

Input line: Tell us which log10(MIC) value is on record for CCC(=O)NC1=NN(C(=O)CC)C2(S1)C1CCCC2C(c2ccc(F)cc2)NC1c1ccc(F)cc1 (stereo not drawn)
Output line: 0.80

Input line: Tell us which log10(MIC) value is on record for CC(=O)NC1=NN(C(C)=O)C2(S1)C1CCCC2C(c2cccc(F)c2)NC1c1cccc(F)c1 (stereo not drawn)
Output line: 1.40

Input line: Tell us which log10(MIC) value is on record for CCC(=O)N(C1=NN(C(=O)CC)C2(S1)C1CCCC2C(c2ccccc2Cl)NC1c1ccccc1Cl)c1ccccc1 (stereo not drawn)
Output line: 1.70

Input line: Tell us which log10(MIC) value is on record for COc1cccc(C2NC(c3cccc(OC)c3)C3CCCC2C32SC(NC(C)=O)=NN2C(C)=O)c1 (stereo not drawn)
Output line: 1.70

Input line: Tell us which log10(MIC) value is on record for CC(=O)NC1=NN(C(C)=O)C2(S1)C1CCCC2C(c2ccc(F)cc2)NC1c1ccc(F)cc1 (stereo not drawn)
Output line: 0.80
